system: U251 CNS; assay: NCI tumour cell line growth inhibition, 48 h
Kindly supply the reported TGI values for the records listed here.

Field: example entries. Status: answers known.
>  <compound>
COc1cc(OC)c2c(=O)c3c([N+](=O)[O-])cccc3n(C)c2c1

>  <tested.target>
U251 CNS

>  <TGI>
> 100 µM

$$$$
>  <compound>
Clc1ccc(OCc2nnc3n2N=C(c2ccc(Br)cc2)CS3)cc1

>  <tested.target>
U251 CNS

>  <TGI>
> 100 µM

$$$$
>  <compound>
Cc1ccc(/C=C/c2c(C(=O)/C=C/c3ccc(Cl)cc3)c(C)nc3ccccc23)cc1

>  <tested.target>
U251 CNS

>  <TGI>
3.38 µM

$$$$
>  <compound>
NC1=NC(=O)/C(=C/c2ccc3ncccc3c2)S1

>  <tested.target>
U251 CNS

>  <TGI>
> 25 µM

$$$$
>  <compound>
N#Cc1ncn(CCO)c1N

>  <tested.target>
U251 CNS

>  <TGI>
> 100 µM

$$$$

Below are 6 compounds. Give each one its TGI.
1. C=C1C(=O)O[C@H]2[C@H]1CC/C(Cn1cc(-c3cccc(Cl)c3)nn1)=C\CC[C@@]1(C)O[C@@H]21
2. CCOc1ccc2c(c1)CN(Cc1ccc(Cl)cc1)CO2
3. COc1ccc2c(c1)[n+](=O)c(C(=O)C/C(=N/NC(=O)C[N+](C)(C)C)C(=O)Nc1cccc(C)c1C)c(C)n2O
4. CC1=C[C@@H](C)C[C@]2(C)CC[C@H](O2)[C@]23CC[C@](CO)(C[C@H](O2)[C@@H]2O[C@@](C)(CC2=O)[C@@H](O)[C@H]2CC[C@@]4(CCC[C@@H](O4)[C@H](C)C(=O)O[C@H]4C[C@H]([C@]5(O)OCC[C@H](C)[C@@H]5O)O[C@H]4C=C1)O2)O3
5. O=C(O)c1c(Cl)c(Cl)c(Cl)c(Cl)c1C(=O)Nc1ccc2cn[nH]c2c1
6. Nc1ncnc2c1ncn2-c1ccc([N+](=O)[O-])cn1

3.01 µM
33.2 µM
> 100 µM
0.438 µM
> 100 µM
> 100 µM

Below are 6 compounds. Give each one its TGI.
1. O=C(Nc1ccccc1C(F)(F)F)c1ccc(NC2=C(Cl)C(=O)N(Cc3ccccc3)C2=O)cc1
2. CCOC(=O)c1nc2ccccc2nc1Oc1ccc(C#N)cc1
3. CCOC(=O)c1c(-c2cccc(Cl)c2)c(C(=O)OC)c(C)c2sc(C=O)nc12
4. O=C(Nc1ccc(-n2ccc3c(NC(=O)c4ccccc4)nccc32)cc1)Nc1cccc(C(F)(F)F)c1
5. CC(=O)OCC1OC(n2c(N)c(C#N)c(C)c(C#N)c2=S)C(OC(C)=O)C(OC(C)=O)C1OC(C)=O (centres undefined)
6. COC(=O)C1C(=O)O[C@@H](c2ccc(OC)c(OC)c2OC)C1C(=O)OC (mixture of isomers)

1. > 100 µM
2. > 100 µM
3. 32.2 µM
4. 10.8 µM
5. > 100 µM
6. > 100 µM

Below are 2 compounds. Give each one its TGI.
1. C[N+]12CCN(c3ccccc31)c1ccccc12
2. CC1(C)OCN(c2ccc(S(N)(=O)=O)cc2)Cn2c1nc1ccccc12

1: > 10 µM; 2: > 100 µM

====

test system: NCI/ADR-RES ovarian; assay: NCI tumour cell line growth inhibition, 48 h
readout.name: TGI

Field: example entries. Status: answers known.
>  <molecule>
CN=C(N)N=Nc1c(O)[nH]c2ccccc12

>  <TGI>
> 100 µM

$$$$
>  <molecule>
c1ccc(-c2c3c(nc4c2CC[C@H]4NC2=NCCN2)[C@@H](NC2=NCCN2)CC3)cc1

>  <TGI>
> 100 µM

$$$$
>  <molecule>
NC(=O)CC1(O)C=C(Br)C(=O)C(Br)=C1

>  <TGI>
> 94.4 µM

$$$$
>  <molecule>
C[N+]1(CCC(=O)c2ccccc2)CCC2CCC(C2)C1 (stereo not drawn)

>  <TGI>
> 100 µM

$$$$
>  <molecule>
O=C(Nc1ccc(-n2ccc3c(NC(=O)c4ccccc4)nccc32)cc1)Nc1cccc(C(F)(F)F)c1

>  <TGI>
28.7 µM

$$$$
>  <molecule>
Cc1ccc(Cl)cc1NC(=O)c1cc2ccccc2cc1O

>  <TGI>
1.27 µM

$$$$
>  <molecule>
CC(C)CCC[C@@H](C)C1CCC2[C@@H]3CCC4C[C@@H](NS(C)(=O)=O)CC[C@]4(C)C3CC[C@@]21C (stereo partly drawn)

>  <TGI>
> 100 µM

$$$$
>  <molecule>
C[N+]12CCN(c3ccccc31)c1ccccc12

>  <TGI>
> 10 µM

$$$$

Below are 6 molecules. Give each one its TGI.
1. O=S(=O)(c1ccccc1)N1CN2CN(C1)CN(S(=O)(=O)c1ccccc1)C2
2. NC(N)=NS(=O)(=O)c1ccc(NNC(=O)c2cccc3c(=O)c4ccccc4[nH]c23)cc1
3. Cc1ccc(-c2nc3cc(Cl)c(Cl)cc3nc2C#N)cc1
4. COC(=O)C1=C(OC(=O)/C=C/c2ccc(Cl)cc2)C(C(=O)OC)[C@]2(O)[C@@H](C(=O)OC)[C@H]1C[C@@H](c1ccccc1)[C@@H]2C(=O)OC (stereo partly drawn)
5. O=C(COc1ccc(OCC(=O)N2C(=O)CN(c3ccccc3)C2=S)cc1)N1C(=O)CN(c2ccccc2)C1=S
6. CCN(CC)c1ccc2cc(C(=O)NCc3ccccc3)c(=N)oc2c1

1: > 100 µM; 2: > 100 µM; 3: > 100 µM; 4: > 28.8 µM; 5: > 100 µM; 6: > 100 µM

Below are 4 molecules. Give each one its TGI.
1. COC1=C(OC)C(=O)C(Sc2ccc3ccccc3c2)=CC1=O
2. NC1=NC(=O)/C(=C/c2ccc3ncccc3c2)S1
3. O=C(c1ccccc1)c1ccc2c(c1)nc1n2C(c2c(F)cccc2F)SC1 (stereo not drawn)
4. COc1cc(C2c3[nH]c4ccccc4c3[C@@H](Nc3ccc(C#N)cc3)[C@H]3COC(=O)N23)cc(OC)c1O (stereo partly drawn)

1. 69.6 µM
2. > 25 µM
3. > 100 µM
4. > 10 µM

From: PubChem BioAssay (NCI)
